# Experiment Summary: growth inhibition of GSK3B-pretreated HCT116 cells – cell-based, CellTiter-Glo, 0.2 to 20 µM (AID 1117336)
# Assay Setup: HCT116 viability after GSK3B inhibitor, at 20 µM
Active and inactive are the calls of the source.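 How the source made its calls: active means compounds lowering colon cancer cell viability after pretreatment blocking the GSK3B kinase; inactive means the rest.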
Please reply with one of these outcomes: active, inactive

Observe how each entry below is paired with its result.
Query: What did the test return for O=C(O)c1ccc(=O)[nH]c1 ?
Response: inactive

Query: Per the records of this test, what outcome belongs to CNC(C)[C@@H](O)c1ccc(O)cc1 (stereo partly drawn) ?
Response: inactive

Query: How did this test come out for CN1CCC(O)(c2ccc(F)cc2)C(C(=O)c2ccc(F)cc2)C1 (stereo not drawn) ?
Response: inactive

Next:
Query: Test call, this molecule: CCOc1cc(C=O)ccc1O
Response: inactive

Query: Called result for [N-]=[N+]=CC(=O)OC[C@H](N)C(=O)O
Response: active

Query: Tell me the recorded outcome of this test for O=C(NC(=O)c1c(F)cccc1F)Nc1cc(Cl)c(OC(F)(F)C(F)C(F)(F)F)cc1Cl (stereo not drawn) .
Response: inactive

Query: So what was the verdict on COC(=O)C(Cl)C(=O)OC in this test?
Response: active

Query: What is the recorded call for this molecule in the test? CNCC(O)c1ccc(O)cc1 (stereo not drawn)
Response: inactive

Query: Write down the call the test reported for this molecule. Item: C[N+]1(CCF)[C@@H]2CC[C@H]1CC(OC(=O)C(O)(c1ccccc1)c1ccccc1)C2 (stereo partly drawn)
Response: inactive

Query: Please state the recorded outcome for this molecule: O=c1[nH]c2cc(Cl)ccc2n1C1CCNCC1
Response: inactive

Query: Given CC[C@]1(O)CC[C@H]2[C@@H]3CCC4=CCCC[C@@H]4[C@H]3CC[C@@]21C , state the outcome it received in this test.
Response: active

Query: For this molecule, state the assay outcome: CC1=C2[C@H]3OC(=O)[C@@H](C)[C@@H]3CC[C@@]2(C)C=CC1=O
Response: inactive

Query: So what was the verdict on COC(=O)c1cncn1C(C)c1ccccc1 (stereo not drawn) in this test?
Response: inactive
